B1: CPEB3 Ribozyme (parent)
chain: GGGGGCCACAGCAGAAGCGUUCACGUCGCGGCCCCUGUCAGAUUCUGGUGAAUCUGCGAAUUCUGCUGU

variants of: B1; assay: self-cleavage, relative activity (ratio to wild type); higher = more cleavage; co-transcriptional
// reported self-cleavage for each item listed
Could you respond with only the numeric value?

Read off the recorded self-cleavage for C7U C22G 0.117

Using known records, supply self-cleavage for U21A A51G 1.01

Indicate its recorded self-cleavage; the variant in question is A13C U44C 0.51
